- System: D 407 cells
- test.summary: Cytotoxicity of amphiphile/DNA complexes, percentage of survived cells
- Assay type: cell-based, human
- Set-up: concentration or dose not given beside the values
- run.conditions: amphiphile/DNA +/− charge ratio 8
test.readout: cytotoxicity as a percentage of survived cells

Value of measured cytotoxicity as a percentage of survived cells for the entry CCCCCCCCCCCCCCCCOC(=O)C1=C(C[n+]2ccccc2)NC(C[n+]2ccccc2)=C(C(=O)OCCCCCCCCCCCCCCCC)C1c1ccccc1.[Br-].[Br-] [XXV] : 62,05%

Value of measured cytotoxicity as a percentage of survived cells for the entry CCCCCCCCCCCCCCOC(=O)C1=C(C)NC(C)=C(C(=O)OCCCCCCCCCCCCCC)C1c1ccc[n+](C)c1.I.[I-] [VI] : 5,11%

Value of measured cytotoxicity as a percentage of survived cells for the entry CCCCCCCC/C=C\CCCCCCCC(=O)OCC(C[N+](C)(C)C)OC(=O)CCCCCCC/C=C\CCCCCCCC.[Cl-] (stereo not drawn) [DOTAP, reference compound] : 76,11%
